Tested on: TF-1 cells
Experiment description: Cell growth
Format: cell-based, human
Condition parameters: read-out: cell growth IC50, medium with GM-CSF, 5 days
Readout label: IC50 (nM)
Please state the figure in nM; there is no need to write the unit.

Sample "CC1(N)CCN(c2cnc(-c3cccc(Cl)c3Cl)c(N)n2)CC1" ; IC50 observed: 1730

====

Tested on: TF1/SHP2^E69K cells
Experiment description: Cell growth in GM-CSF free medium
Type: cell-based, human
Condition parameters: read-out: cell growth IC50, 5 days
Readout label: IC50
I'd appreciate it if you wrote the number followed by its unit.

Sample CC1(N)CCN(c2cnc(-c3cccc(Cl)c3Cl)c(N)n2)CC1 [SHP099] ; IC50 observed: 1.46 µM
